- Test system: ragweed (common ragweed, Ambrosia elatior)
- testProtocol: Test A preemergence, ragweed
- Assay type: in vivo
- assayContext: 125 g ai/ha, 0 to 100 scale
measuredAttribute: Plant response rating, Ragweed

Example compounds with recorded Plant response rating, Ragweed:
{"columns": ["structureString", "measuredAttribute", "measured"],
 "data": [
  ["FC(F)c1cc(-c2ncccc2Oc2ncc(Cl)cn2)no1", "Plant response rating, Ragweed", 50],
  ["Cc1cnc(-n2ccc(C(F)(F)F)n2)c(Oc2ncc(Cl)cn2)c1", "Plant response rating, Ragweed", 0]
]}

Okay, now this compound:
Qu. Write down Plant response rating, Ragweed measured for item Fc1cnc(Oc2cccnc2-c2cc(C(F)F)no2)nc1
Ans. 30

Data origin: patent US11006631B2
